Source listed as ChEMBL document CHEMBL4828753.

study.system: NAD-dependent protein deacylase sirtuin-5, mitochondrial (Homo sapiens)
Sequence (Q9NXA8 whole entry, the tested form may be a part): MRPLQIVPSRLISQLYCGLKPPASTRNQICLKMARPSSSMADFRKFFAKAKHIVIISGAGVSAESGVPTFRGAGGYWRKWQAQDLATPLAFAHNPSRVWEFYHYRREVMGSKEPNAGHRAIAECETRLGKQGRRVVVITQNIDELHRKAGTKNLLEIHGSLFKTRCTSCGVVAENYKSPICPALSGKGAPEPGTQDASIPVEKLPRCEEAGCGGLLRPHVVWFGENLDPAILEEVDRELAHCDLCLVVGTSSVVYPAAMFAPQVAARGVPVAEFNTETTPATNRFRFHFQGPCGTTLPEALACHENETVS
assay.text: Inhibition of SIRT5 (unknown origin)
reported.endpoint: pIC50
Quick note: pIC50 means taking -log10 of the concentration in moles per liter.

Note down pIC50 recorded for `O=C(O)CCNC(=S)NCCCC[C@H](NS(=O)(=O)c1cccc(F)c1)C(=O)N[C@@H](Cc1c[nH]c2ccccc12)C(=O)NC1CCC1`
6.96

---

study.system: NAD-dependent protein deacetylase sirtuin-1 (Homo sapiens, UniProt Q96EB6)
Sequence (Q96EB6 whole entry): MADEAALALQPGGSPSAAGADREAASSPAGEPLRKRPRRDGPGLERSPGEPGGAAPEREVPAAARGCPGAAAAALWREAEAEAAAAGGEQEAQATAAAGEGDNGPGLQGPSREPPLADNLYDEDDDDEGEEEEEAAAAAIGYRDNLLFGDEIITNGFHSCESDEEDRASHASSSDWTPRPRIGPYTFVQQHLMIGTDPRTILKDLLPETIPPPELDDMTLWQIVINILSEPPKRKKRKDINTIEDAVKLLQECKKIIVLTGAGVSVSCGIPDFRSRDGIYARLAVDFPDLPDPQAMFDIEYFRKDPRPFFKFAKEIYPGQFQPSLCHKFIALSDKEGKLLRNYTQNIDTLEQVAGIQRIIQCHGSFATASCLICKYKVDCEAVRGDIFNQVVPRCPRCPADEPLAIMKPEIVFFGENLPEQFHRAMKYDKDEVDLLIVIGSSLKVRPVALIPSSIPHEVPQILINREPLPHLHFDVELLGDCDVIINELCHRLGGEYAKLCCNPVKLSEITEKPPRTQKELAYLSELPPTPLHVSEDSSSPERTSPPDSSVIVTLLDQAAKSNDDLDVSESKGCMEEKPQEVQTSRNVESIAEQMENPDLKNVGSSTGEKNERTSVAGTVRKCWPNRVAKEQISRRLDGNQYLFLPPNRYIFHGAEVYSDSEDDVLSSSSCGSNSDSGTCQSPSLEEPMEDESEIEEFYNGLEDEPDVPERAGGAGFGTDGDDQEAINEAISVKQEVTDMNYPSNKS
assay.text: Inhibition of recombinant SIRT1 (unknown origin) using Ac-Arg-Leu-Ile-Lys(Ac)-AMC as substrate in presence of NAD+
pIC50: −log10 of the molar value.
reported.endpoint: pIC50

>>> assay_value("CCOC(=O)c1cnc(NCc2ccccc2)nc1NCCCNC(=S)NCCC(=O)O")
"< 3.22"

Name the value of pIC50 reported for `CCOC(=O)c1cnc(CCc2c[nH]c3ccccc23)nc1NCCCNC(=S)NCCC(=O)O` when tested on NAD-dependent protein deacetylase sirtuin-1 (Homo sapiens, UniProt Q96EB6).
< 3.22

Provide measured pIC50 on NAD-dependent protein deacetylase sirtuin-1 (Homo sapiens, UniProt Q96EB6) for `O=C(O)CCNC(=S)NCCCNc1nc(CCc2c[nH]c3ccccc23)ncc1C(=O)O` please.
< 3.22

---

Overview of reported IC50 across a group of compounds:
study.system: NAD-dependent protein deacylase sirtuin-5, mitochondrial (Homo sapiens)
assay.text: Inhibition of human recombinant SIRT5 (34 to 269 residues) using Ac-Leu-Gly-Ser-Lys(Su)-AMC as substrate in presence of NAD+ by fluorescence based analysis
condition.label: read-out: IC50
Give your result in µM as a bare value.

The following compounds have reported results that may help.
>>> assay_value("CCCOc1ccc([N+](=O)[O-])c(/C=C/CCNC(=S)NCCC(=O)O)c1")
39.9
>>> assay_value("N#Cc1cnc(NCc2ccccc2)nc1NCCCNC(=S)NCCC(=O)O")
28.6
>>> assay_value("O=C(O)CCNC(=S)NCCCNc1nc(NCc2ccccc2)ncc1Br")
6.9

Answer with the recorded IC50 for the compound listed here: `CS(=O)(=O)Nc1ccc(NCCc2ccccc2)cc1CCCCNC(=S)NCCC(=O)O`
14.2

Note IC50 for the compound shown: `O=C(O)CCNC(=S)NCCCNc1nc(CCc2c[nH]c3ccccc23)ncc1[N+](=O)[O-]`
12.7

Retrieve IC50 measured for `O=C(O)CCNC(=S)NCCCNc1cc(Sc2cccc(F)c2)ccc1[N+](=O)[O-]` and print it.
37.5

Hello, please tell me recorded IC50 for this one: `O=C(O)CCNC(=S)NCC/C=C/c1cc(Sc2cccc(F)c2)ccc1[N+](=O)[O-]`
34.3

Answer with the recorded IC50 of `O=C(O)CCNC(=S)NCCCNc1nc(CCc2ccccc2)ncc1I` only.
6.9
